# testTarget: T1, human TF ECD-His (hTF-his) (human, UniProt P13726 33-251)
# T1 construct: also called bio-hTF-his; human TF-His protein
# assayRemarks: SPR Biacore T200, antibody on Protein A chip, TF-His as analyte, 1:1 model
observedProperty: pKd
// pKd here means minus log10 of the molar concentration (mol/L)

Previously resolved entries follow.
Q. Need pKd, item hu67-16 (antibody, human IgG1, kappa, V domains shown) VH: EVQLQESGPGLVKPSQTLSLTCTVSGFSLTNYGVNWIRQPPRKGLEWIGVIWSRGNTDYNAAFISRVTISKDNSKSQVSLKLSSVTAADTAVYYCARKDAVVATDALDYWGQGTTVTVSS VL: DIQMTQSHKFLSASVGDRVTITCKASQDVSTAVAWYQQKPGKSPKLLIYSTSYRYTGVPSRFSGSGSGTDFTFTISSLQPEDIATYYCQQHYSTPYTFGGGTKVEIKR
A. 7.72

Q. Same read-out for hu67-12 (antibody, human IgG1, kappa, V domains shown) VH: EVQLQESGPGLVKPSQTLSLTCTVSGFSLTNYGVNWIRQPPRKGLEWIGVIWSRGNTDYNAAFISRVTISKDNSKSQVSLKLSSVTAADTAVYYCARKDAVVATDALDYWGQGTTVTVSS VL: DIQMTQSPSSLSASVGDRVTITCKASQDVSTAVAWYQQKPGKAPKLLIYSTSYRYTGVPSRFSGSGSGTDFTFTISSLQPEDIATYYCQQHYSTPYTFGGGTKVEIKR ?
A. 7.73

Next binder, pKd to be filled in.
Q. Give the measured pKd of chimeric antibody CH310 (antibody, human IgG1, kappa, V domains shown, Murine 310# variable regions + human constant regions) VH: EVQLQQSGPELVKPGASLKISCKASGYSFTGYYMNWVKQSPEKSLEWIGEINPSTGGSTYNQKFKAKATLTVDQSSNTAYMQLKSLTSEDSAVYYCARRELGGPFGYWGQGTPVTVSA VL: SIVMTQTPKFLLVSSGDRVTITCKASQSVSNGIAWYQQKPGQSPKLLIYFASNRYTGVPDRFTGSGYGTDFTFTISTVQAEDLAVYFCQQDYSSPWTFGGGTKLEIKR .
A. 7.63
